Source: patent US11529341B2

target desc: PD-1/PD-L1 interaction (Homo sapiens, UniProt Q9NZQ7)
Construct: Tag1 (undisclosed kit tag)
Sequence (Q9NZQ7 19-238 limits assumed): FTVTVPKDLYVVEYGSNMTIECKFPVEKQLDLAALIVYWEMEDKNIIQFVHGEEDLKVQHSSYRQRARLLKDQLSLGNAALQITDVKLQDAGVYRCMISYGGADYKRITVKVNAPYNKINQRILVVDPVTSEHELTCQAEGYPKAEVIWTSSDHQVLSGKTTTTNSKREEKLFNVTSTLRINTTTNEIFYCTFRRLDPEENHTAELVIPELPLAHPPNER
measurement description: PD-1/PD-L1 Homogenous Time-Resolved Fluorescence (HTRF) binding assay (CisBio kit)
measurement conditions: Biochemical PD1/PD-L1 inhibition
IC50 reference

Below: 3 molecules and their reported IC50.
> print(dat)
                                   molecule       reported
1  CC(=O)NCCNCc1c(OCc2cncc(F)c2)cc(OCc2cccc(-c3ccccc3)c2C)c2c1CCC2 [Compound 10]       < 100 nM
2  COc1cc(OCc2cccc(-c3ccccc3)c2C)c2c(c1CN1CCCC[C@H]1C(=O)O)CCC2 [Compound 26]  100 to 500 nM
3  COc1cc(OCc2cccc(-c3cccc(OCCCN4CCC(F)(F)C4)c3C)c2C)c2c(c1CN1CCCC[C@H]1C(=O)O)CCC2 [Compound 7]       > 500 nM

## Task // returns reported IC50 for input COc1cc(OCc2cccc(-c3ccccc3)c2C#N)c2c(c1CN1CCCC[C@H]1C(=O)O)CCC2 [Compound 55]
## Result < 100 nM
